meta.source: ChEMBL document CHEMBL1131184

Measurement Name: IC50 (µM)
# unit: µM | format: bare number

Tested system M-phase inducer phosphatase 1 (Homo sapiens); IC50 recorded for C=C(CC/C=C\C#N)[C@H]1CC[C@]2(C)[C@@H](C(C)CCCC(C)C)CC[C@H]2[C@@H]1CC(=O)O (stereo partly drawn) was 9.7

Log: M-phase inducer phosphatase 1 (Homo sapiens), compound C/C(=C\C/C=C\C#N)[C@H]1CC[C@]2(C)[C@@H](C(C)CCCC(C)C)CC[C@H]2[C@@H]1CC(=O)O (stereo partly drawn) , IC50 = 24.2
